# maps each entry to its Extraction Ratio (ER)
Tested on: human hepatocytes
RUN_DESCRIPTION: Hepatocytes stability assay (human hepatocytes)
Type: in vitro ADME
CONDITION_SET: human hepatocytes; scaled hepatic clearance divided by liver blood flow (well-stirred model, fu assumed unity)

[
  {
    "MOLECULE": "O=C1COc2ccccc2[C@H]2CC[C@H](CC2)OCC2[C@@H](NS(=O)(=O)CC3CC3)CCCN12 (stereo in doubt) [Compound 48]",
    "Extraction Ratio (ER)": 0.86
  },
  {
    "MOLECULE": "O=C1COc2ccccc2C2CCC(CC2)OC[C@H]2[C@@H](NS(=O)(=O)CCO)CCCN12 (stereo in doubt) [Compound 19]",
    "Extraction Ratio (ER)": 0.50
  },
  {
    "MOLECULE": "O=C1COc2cccc(F)c2[C@H]2CC[C@H](CC2)OCC2[C@@H](NS(=O)(=O)C3CC3)CCCN12 (stereo in doubt) [Compound 74]",
    "Extraction Ratio (ER)": 0.69
  }
]

Now turn to the next molecule.
Challenge: Consider the molecule O=S(=O)(CC1CC1)N[C@H]1CCCN2CCOc3ccccc3[C@H]3CC[C@H](CC3)OCC12 (stereo in doubt) [Compound 59] and give its recorded Extraction Ratio (ER).
Response given: 0.90

----------
# maps each entry to its Extraction Ratio (ER)
Test system: human hepatocytes
RUN_DESCRIPTION: Hepatocytes stability assay (human hepatocytes)
Type: in vitro ADME
CONDITION_SET: human hepatocytes; scaled hepatic clearance divided by liver blood flow (well-stirred model, fu assumed unity)
Reply: number alone, nothing else.

Previously resolved entries follow.
[
  {
    "MOLECULE": "O=C1COc2ccccc2C2CCC(CC2)OC[C@H]2[C@@H](NS(=O)(=O)C3CC3)CCCN12 (stereo in doubt)",
    "Extraction Ratio (ER)": 0.82
  },
  {
    "MOLECULE": "CC(C)S(=O)(=O)N[C@H]1CCCN2C(=O)COc3ccc(Cl)cc3[C@H]3CC[C@H](CC3)OCC12 (stereo in doubt)",
    "Extraction Ratio (ER)": 0.43
  },
  {
    "MOLECULE": "Cc1ncnc2c1[C@H]1CC[C@H](CC1)OCC1[C@@H](NS(=O)(=O)C3CC3)CCCN1C(=O)CO2 (stereo in doubt)",
    "Extraction Ratio (ER)": 0.37
  },
  {
    "MOLECULE": "Cc1ccc2c(c1)OCC(=O)N1CCC[C@H](NS(C)(=O)=O)C1CO[C@H]1CC[C@@H]2CC1 (stereo in doubt)",
    "Extraction Ratio (ER)": 0.49
  },
  {
    "MOLECULE": "CC(C)S(=O)(=O)N[C@H]1CCCN2C(=O)COc3ncccc3C3CCC(CC3)OC[C@@H]12 (stereo in doubt)",
    "Extraction Ratio (ER)": 0.69
  },
  {
    "MOLECULE": "Cc1cccc2c1C1CCC(CC1)OC[C@H]1[C@@H](NS(=O)(=O)C3CC3)CCCN1C(=O)CO2 (stereo in doubt)",
    "Extraction Ratio (ER)": 0.81
  },
  {
    "MOLECULE": "Cc1ncnc2c1[C@H]1CC[C@H](CC1)OCC1[C@@H](NS(=O)(=O)C(C)C)CCCN1C(=O)CO2 (stereo in doubt)",
    "Extraction Ratio (ER)": 0.34
  },
  {
    "MOLECULE": "Cc1ccnc2c1C1CCC(CC1)OC[C@H]1[C@@H](NS(=O)(=O)C(C)C)CCCN1C(=O)CO2 (stereo in doubt)",
    "Extraction Ratio (ER)": 0.58
  },
  {
    "MOLECULE": "O=S(=O)(N[C@H]1CCCN2CCOc3ccccc3[C@H]3CC[C@H](CC3)OCC12)C1CCC1 (stereo in doubt)",
    "Extraction Ratio (ER)": 0.91
  },
  {
    "MOLECULE": "CS(=O)(=O)N[C@H]1CCCN2C(=O)COc3ccc(C#N)cc3[C@H]3CC[C@H](CC3)OCC12 (stereo in doubt)",
    "Extraction Ratio (ER)": 0.29
  }
]

Challenge: Consider the molecule O=C1COc2ccccc2[C@H]2CC[C@H](CC2)OCC2[C@@H](NS(=O)(=O)C(F)(F)F)CCN12 (stereo in doubt) and give its recorded Extraction Ratio (ER).
Response given: 0.274

----------
# maps each entry to its Papp A→B at 2 h, 3 μM
System: MDR1
RUN_DESCRIPTION: MDCK-MDR1 permeability assay
Type: in vitro ADME
CONDITION_SET: dog, MDCK-MDR1, MDCK-MDR1 cells; test compound 3 μM; 2 hours at 37 degrees C; apical to basolateral
# output: number + unit

Previously resolved entries follow.
[
  {
    "COMPOUND": "Cc1c(Cl)ccc2c1[C@H]1CC[C@H](CC1)OCC1[C@@H](NS(C)(=O)=O)CCCN1C(=O)CO2 (stereo in doubt)",
    "REPORTED_RESULT": "0.32 ×10⁻⁶ cm/s"
  },
  {
    "COMPOUND": "CS(=O)(=O)N[C@H]1CCCN2C(=O)COc3cc(C#N)ccc3[C@H]3CC[C@H](CC3)OCC12 (stereo in doubt)",
    "REPORTED_RESULT": "0.19 ×10⁻⁶ cm/s"
  },
  {
    "COMPOUND": "COC(=O)N1CCC[C@H](NS(C)(=O)=O)[C@@H]1CO[C@H]1CC[C@@H](c2ccccc2)CC1 [Reference Compound A, reference compound]",
    "REPORTED_RESULT": "5 ×10⁻⁶ cm/s"
  },
  {
    "COMPOUND": "Cc1ccc2c(c1C)[C@H]1CC[C@H](CC1)OCC1[C@@H](NS(=O)(=O)C3CC3)CCCN1C(=O)CO2 (stereo in doubt)",
    "REPORTED_RESULT": "0.79 ×10⁻⁶ cm/s"
  },
  {
    "COMPOUND": "O=C1COc2ccccc2[C@H]2CC[C@H](CC2)OCC2[C@@H](NS(=O)(=O)C3CCOC3)CCCN12 (stereo in doubt)",
    "REPORTED_RESULT": "0.18 ×10⁻⁶ cm/s"
  }
]

Challenge: Consider the compound Cc1cnc2c(c1)[C@H]1CC[C@H](CC1)OCC1[C@@H](NS(=O)(=O)C(C)C)CCCN1C(=O)CO2 (stereo in doubt) and give its recorded Papp A→B at 2 h, 3 μM.
Response given: 0.44 ×10⁻⁶ cm/s

Challenge: Consider the compound O=S(=O)(CC1CC1)N[C@H]1CCCN2CCOc3ccccc3[C@H]3CC[C@H](CC3)OCC12 (stereo in doubt) and give its recorded Papp A→B at 2 h, 3 μM.
Response given: 1.67 ×10⁻⁶ cm/s

Challenge: Consider the compound Cc1ccnc2c1[C@H]1CC[C@H](CC1)OCC1[C@@H](NS(=O)(=O)C3CC3)CCN1C(=O)CO2 (stereo in doubt) and give its recorded Papp A→B at 2 h, 3 μM.
Response given: 3.4 ×10⁻⁶ cm/s

Challenge: Consider the compound O=C1COc2ccccc2[C@H]2CC[C@H](CC2)OCC2[C@@H](NS(=O)(=O)CF)CCCN12 (stereo in doubt) and give its recorded Papp A→B at 2 h, 3 μM.
Response given: 1.32 ×10⁻⁶ cm/s

Challenge: Consider the compound CC(C)S(=O)(=O)N[C@H]1CCCN2CCOc3ncccc3[C@H]3CC[C@H](CC3)OCC12 (stereo in doubt) and give its recorded Papp A→B at 2 h, 3 μM.
Response given: 12 ×10⁻⁶ cm/s

Challenge: Consider the compound Cc1ccnc2c1C1CCC(CC1)OC[C@H]1[C@@H](NS(C)(=O)=O)CCCN1C(=O)CO2 (stereo in doubt) and give its recorded Papp A→B at 2 h, 3 μM.
Response given: 0.49 ×10⁻⁶ cm/s

Challenge: Consider the compound Cc1ncnc2c1[C@H]1CC[C@H](CC1)OCC1[C@@H](NS(=O)(=O)C(C)C)CCN1C(=O)CO2 (stereo in doubt) and give its recorded Papp A→B at 2 h, 3 μM.
Response given: 1.9 ×10⁻⁶ cm/s

Challenge: Consider the compound Cc1ccnc2c1[C@H]1CC[C@H](CC1)OCC1[C@@H](NS(=O)(=O)C3COC3)CCCN1C(=O)CO2 (stereo in doubt) and give its recorded Papp A→B at 2 h, 3 μM.
Response given: 0.84 ×10⁻⁶ cm/s

Challenge: Consider the compound Cc1ncnc2c1[C@H]1CC[C@H](CC1)OCC1[C@@H](NS(=O)(=O)C3CC3)CCCN1C(=O)CO2 (stereo in doubt) and give its recorded Papp A→B at 2 h, 3 μM.
Response given: 0.24 ×10⁻⁶ cm/s

Challenge: Consider the compound Cc1c(Cl)ccc2c1[C@H]1CC[C@H](CC1)OCC1[C@@H](NS(=O)(=O)C3CC3)CCCN1C(=O)CO2 (stereo in doubt) and give its recorded Papp A→B at 2 h, 3 μM.
Response given: 0.3 ×10⁻⁶ cm/s

Challenge: Consider the compound Cc1ccc2c(c1)C1CCC(CC1)OC[C@H]1[C@@H](NS(=O)(=O)C3CC3)CCCN1C(=O)CO2 (stereo in doubt) and give its recorded Papp A→B at 2 h, 3 μM.
Response given: 0.35 ×10⁻⁶ cm/s

Challenge: Consider the compound O=C1COc2ccccc2[C@H]2CC[C@H](CC2)OCC2[C@@H](NS(=O)(=O)C3CCC3)CCCN12 (stereo in doubt) and give its recorded Papp A→B at 2 h, 3 μM.
Response given: 0.92 ×10⁻⁶ cm/s
